TARGET OR TEST SYSTEM: T1, Human CD98, endogenous on HCC38, Molt-4 and Jurkat human cancer cells (human)
T1 chain: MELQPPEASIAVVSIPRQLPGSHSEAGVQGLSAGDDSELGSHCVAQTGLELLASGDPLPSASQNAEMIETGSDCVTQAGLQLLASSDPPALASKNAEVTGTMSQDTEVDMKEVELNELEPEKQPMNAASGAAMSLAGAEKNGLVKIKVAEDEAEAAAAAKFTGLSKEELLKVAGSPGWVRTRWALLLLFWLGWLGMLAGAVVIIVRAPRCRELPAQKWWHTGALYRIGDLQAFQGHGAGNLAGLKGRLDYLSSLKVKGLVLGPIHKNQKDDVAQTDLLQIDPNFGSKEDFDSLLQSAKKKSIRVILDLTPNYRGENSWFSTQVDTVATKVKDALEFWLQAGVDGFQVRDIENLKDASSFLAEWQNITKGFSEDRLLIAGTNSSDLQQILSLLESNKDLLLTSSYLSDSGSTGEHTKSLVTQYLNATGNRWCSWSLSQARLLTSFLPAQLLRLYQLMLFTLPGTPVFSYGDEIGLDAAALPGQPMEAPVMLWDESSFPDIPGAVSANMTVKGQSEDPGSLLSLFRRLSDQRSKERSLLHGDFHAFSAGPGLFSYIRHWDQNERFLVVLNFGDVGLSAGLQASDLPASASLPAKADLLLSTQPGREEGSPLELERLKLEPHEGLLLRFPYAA
TEST SUMMARY: cell-based or functional assay
Quick reference for ADC potency, IC50 (nM), Molt-4 growth inhibition among some binders

INSERT INTO results (binder, recorded_result) VALUES
  ('Ab7-CZ (Ab7 conjugated to Bcl-xL inhibitor synthon CZ) (antibody, V domains shown) VH: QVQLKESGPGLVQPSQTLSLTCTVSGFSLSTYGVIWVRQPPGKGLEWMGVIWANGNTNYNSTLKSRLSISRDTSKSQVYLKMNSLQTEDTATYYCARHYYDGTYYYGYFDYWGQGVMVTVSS VL: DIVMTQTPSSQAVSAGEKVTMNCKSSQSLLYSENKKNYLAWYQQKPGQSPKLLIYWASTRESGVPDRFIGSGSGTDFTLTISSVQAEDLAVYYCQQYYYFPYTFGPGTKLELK', '0.079 nM'),
  ('Ab1-CZ (Ab1 conjugated to Bcl-xL inhibitor synthon CZ) (antibody, V domains shown) VH: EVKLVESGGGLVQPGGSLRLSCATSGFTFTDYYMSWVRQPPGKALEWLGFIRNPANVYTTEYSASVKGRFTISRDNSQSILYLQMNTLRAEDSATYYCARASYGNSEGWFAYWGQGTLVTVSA VL: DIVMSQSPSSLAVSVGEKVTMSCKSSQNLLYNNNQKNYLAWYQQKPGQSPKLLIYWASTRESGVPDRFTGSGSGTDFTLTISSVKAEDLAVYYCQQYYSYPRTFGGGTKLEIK', '0.053 nM');

Next up:
Item: Ab5-CZ (Ab5 conjugated to Bcl-xL inhibitor synthon CZ) (antibody, V domains shown) VH: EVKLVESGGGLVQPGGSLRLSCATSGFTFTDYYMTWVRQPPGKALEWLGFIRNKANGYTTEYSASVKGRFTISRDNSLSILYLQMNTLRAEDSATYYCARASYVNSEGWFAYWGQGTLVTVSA VL: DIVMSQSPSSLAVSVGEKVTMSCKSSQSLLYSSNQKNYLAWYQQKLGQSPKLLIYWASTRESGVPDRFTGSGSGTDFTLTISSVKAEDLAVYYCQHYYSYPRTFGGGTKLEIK | ADC potency, IC50 (nM), Molt-4 growth inhibition: 0.022 nM

Taken from patent US20200121803A1.
